Where these numbers come from: patent US9487511B2

- SYSTEM_NAME: MAO-A enzyme (Homo sapiens (Human), UniProt P21397)
- Sequence (P21397 whole entry): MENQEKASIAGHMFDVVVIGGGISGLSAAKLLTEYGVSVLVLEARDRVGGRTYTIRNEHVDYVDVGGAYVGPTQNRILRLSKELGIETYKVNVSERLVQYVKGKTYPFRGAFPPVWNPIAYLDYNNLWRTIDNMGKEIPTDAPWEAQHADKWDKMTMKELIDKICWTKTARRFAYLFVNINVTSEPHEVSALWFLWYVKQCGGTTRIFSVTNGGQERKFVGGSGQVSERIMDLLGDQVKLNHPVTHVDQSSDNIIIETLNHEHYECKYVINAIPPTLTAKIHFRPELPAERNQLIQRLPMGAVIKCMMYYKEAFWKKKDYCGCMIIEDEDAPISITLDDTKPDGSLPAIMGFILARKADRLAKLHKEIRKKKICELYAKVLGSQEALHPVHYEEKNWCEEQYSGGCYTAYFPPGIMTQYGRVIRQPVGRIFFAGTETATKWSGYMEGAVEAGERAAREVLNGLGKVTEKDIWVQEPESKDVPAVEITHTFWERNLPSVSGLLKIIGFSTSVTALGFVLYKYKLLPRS
- EXPERIMENT_SUMMARY: Measurement of MAO-A inhibitory activity (MAO-Glo Assay)
- Assay type: biochemical
Counter-ions that a name gives are not always drawn.
QUANTITY_MEASURED: IC50

Solved entries:
> print(dat)
                                   compound  quantity.measured    result
1  Cc1sc([C@@H]2C[C@H]2NCC2CCOCC2)cc1C(=O)NC1CCC(F)(F)CC1 (relative stereo) [Example 66, hydrochloride]               IC50     98 µM
2  O=C(NC1CCCC1)c1csc(C2CC2NC2CCOCC2)c1 (single isomer, unassigned) [Example 38, hydrochloride]               IC50  > 100 µM

# evaluate next
Ask: Can you look up IC50 on MAO-A enzyme (Homo sapiens (Human), UniProt P21397) for O=C(NC1CCN(CC(F)(F)F)CC1)c1csc([C@@H]2C[C@H]2NCC2CCOCC2)c1 [Example 52, hydrochloride] ?
Reply: > 100 µM

* * *

- EXPERIMENT_SUMMARY: Evaluation of blood cell number in mouse
- Type: in vivo
- DETAILS: male ICR mice, oral, repeated 7 or 9 days, 1 mg/kg
Counter-ions that a name gives are not always drawn.
Provide the recorded White blood cells, Mean for the entries that follow.

Solved entries:
> print(dat)
                                   compound        result
1  O=C(NC1CCOCC1)c1csc([C@@H]2C[C@H]2NCC2CC2)c1 [Example 71, hydrochloride]  275 10 cells
2  Cc1nnc(NC(=O)c2cc([C@@H]3C[C@H]3NCC3CC3)c(C)s2)s1 [Example 95, fumarate]  422 10 cells
3  Cc1nnc(NC(=O)c2cc([C@@H]3C[C@H]3NCC3CC3)cs2)s1 [Example 82, dihydrochloride]  403 10 cells
4  Cc1nnc(NC(=O)c2cc([C@@H]3C[C@H]3NC3CCC3)c(C)s2)s1 [Example 99, hydrochloride]  399 10 cells

Ask: Looking for the measured White blood cells, Mean of Cc1nnc(NC(=O)c2cc([C@@H]3C[C@H]3NCC3CCOCC3)c(C)s2)s1 [Example 97, hydrochloride] , can you help?
Reply: 377 10 cells

* * *

Provide the recorded White blood cells, Mean for the entries that follow.
- EXPERIMENT_SUMMARY: Evaluation of blood cell number in mouse
- Type: in vivo
- DETAILS: male ICR mice, oral, repeated 7 or 9 days, 10 mg/kg
Where a name gives a salt, the structure may show the parent alone.

Solved entries:
> print(dat)
                                   compound        result
1  Cc1nnc(NC(=O)c2cc([C@@H]3C[C@H]3NCC3CC3)c(C)s2)s1 [Example 95, fumarate]  408 10 cells
2  Cc1nnc(NC(=O)c2cc([C@@H]3C[C@H]3NCC3CC3)cs2)s1 [Example 82, dihydrochloride]  424 10 cells
3  Cc1nnc(NC(=O)c2cc([C@@H]3C[C@H]3NC3CCC3)c(C)s2)s1 [Example 99, hydrochloride]  378 10 cells
4  O=C(NC1CCOCC1)c1csc([C@@H]2C[C@H]2NCC2CC2)c1 [Example 71, hydrochloride]  276 10 cells

# evaluate next
Ask: Looking for the measured White blood cells, Mean of Cc1nnc(NC(=O)c2cc([C@@H]3C[C@H]3NCC3CCOCC3)c(C)s2)s1 [Example 97, hydrochloride] , can you help?
Reply: 366 10 cells
